These entries and their values trace back to ChEMBL document CHEMBL1201862.

Test system: UACC-257
Experiment: NCI tumour cell line growth inhibition, 48 h
Calls of active or inactive are those of the source. Cut-off read from the data, not from the text of the source: active = GI50 up to about 1.1 µM and inactive = higher.
measured-quantity: GI50

Some compounds with recorded GI50:
>>> endpoint_result("Clc1sc(Cl)c2c1[C@H](Br)C[C@@H]2Cl")
"29.4 µM (inactive)"
>>> endpoint_result("COc1cc(N)c2[nH]c3c(C)ccc(C)c3c2c1")
"> 100 µM (inactive)"
>>> endpoint_result("COC(=O)CC(C)(N[S+]([O-])c1ccc(C)cc1)c1ccccc1 (stereo not given)")
"> 100 µM (inactive)"
>>> endpoint_result("O=C(O)CCC1C(=O)C2CCN1CC2 (stereo not given)")
"> 100 µM (inactive)"
>>> endpoint_result("CN1C(=O)CSC1=S [3-METHYL-RHODANINE]")
"> 100 µM (inactive)"
>>> endpoint_result("Cc1nc(N(CCO)CCO)c2sc(=S)n(-c3ccccc3)c2n1")
"> 100 µM (inactive)"

# map each compound to its GI50
1. O=C1/C(=C/c2ccccc2S)N=C(c2ccccc2)N1c1ccc2c(c1)Sc1cc(N3C(=O)/C(=C/c4ccccc4S)N=C3c3ccccc3)ccc1N2
2. O=C1CC2(CCC(O)(c3ccc4ccccc4c3)C(C(=O)c3ccc4ccccc4c3)C2)C(=O)c2ccccc2N1 (stereo not given)
3. CCCCCCCC1(N=[N+]=[N-])C(=O)c2ccccc2N(C)C1=O (stereo not given)
4. COc1cccc(/C=C/c2ccc(S(N)(=O)=O)cc2)c1

20.4 µM (inactive)
> 100 µM (inactive)
57.8 µM (inactive)
16.4 µM (inactive)
